System: U2OS
Experiment: Multiplex assay against U2OS
Assay type: toxicity, cell-based
Conditions: human, 48 h, 10 µM, compound concentration 10 uM, replicate 2
The label true (1) is reserved for Total Cell Count strictly under 80; false (0) covers values equal to or above it.

CN(C)C(=O)N[C@H]1CC[C@H](CCN2CCN(c3cccc(Cl)c3Cl)CC2)CC1.Cl [CARIPRAZINE HYDROCHLORIDE]	false (0)
CN1CCC[C@@H]1CCO[C@](C)(c1ccccc1)c1ccc(Cl)cc1.O=C(O)/C=C/C(=O)O [CLEMASTINE FUMARATE]	true (1)
O=C1NCN(c2ccccc2)C12CCN(CCCOc1ccc(F)cc1)CC2 [SPIRAMIDE]	false (0)
CNc1nc(NCc2ccc(NS(C)(=O)=O)cc2Cl)cc(-c2ccccn2)n1	false (0)
Cc1csc2c(N[C@@H](C)CN3CCN(S(=O)(=O)c4ccc(Cl)c(Cl)c4)CC3)ncnc12	false (0)
C[C@@]1(C(=O)Nc2ccc(F)nc2)CCCN1c1nc(Nc2cc(C3CC3)n[nH]2)c2cccn2n1	true (1)
Cc1[nH]c(/C=C2\C(=O)Nc3ccc(S(=O)(=O)N(C)c4cccc(Cl)c4)cc32)c(C)c1C(=O)N1CCN(C)CC1	false (0)
